Values compiled from patent US20140113904A1.

- protocol notes: Compound 2 concentrations in plasma by LC-MS/MS
- Format: in vivo, SCID mice
- measurement context: female, SCID, mouse, plasma, oral, 0.3 mg/kg, Plasma Compound 2 Concentration (μM) Mean ± SEM, 0.3 mg/kg single oral dose, 10 h
property name: concentration at 10 h (µM)
Provide the reading as a plain figure in µM.

Check the records and state concentration at 10 h for `CCN1C(=O)CNc2ncc(-c3ccc(-c4nc[nH]n4)nc3C)nc21`
0.04

---

- protocol notes: Compound 2 concentrations in plasma by LC-MS/MS
- Type: in vivo, SCID mice
- measurement context: female, SCID, mouse, plasma, oral, 5 mg/kg, Compound 2 in the plasma, efficacy study, 5 mg/kg QD, 24 hours after the last dose
property name: concentration at 24 h (nM)
Provide the reading as a plain figure in nM.

Check the records and state concentration at 24 h for `CCN1C(=O)CNc2ncc(-c3ccc(-c4nc[nH]n4)nc3C)nc21`
130
